Assay procedure: Clearance in rat at 10 umol/kg, iv
Type: ADME, organism-based
Study conditions: in vivo
Parameter measured: clearance

INSERT INTO measurements (line_notation, parameter_measured, reading) VALUES
  ('Cc1cnc(CN(CCCCN)[C@H]2CCCc3cccnc32)c(C)c1', 'clearance', '31.7 mL/min/kg');

====

Test system: Human immunodeficiency virus 1
Assay procedure: Antiviral activity against X4 tropic HIV1 NL4.3 infected in human PBMC assessed as inhibition of viral cytopathicity
Assay type: functional, organism-based
Study conditions: Human immunodeficiency virus 1, NL4.3
pIC50: −log10 of the molar value.
Reported pIC50 values for the following molecules.
Parameter measured: pIC50

INSERT INTO measurements (line_notation, parameter_measured, reading) VALUES
  ('Cc1cccnc1CN(CCCCN)[C@@H](C)c1ccccn1', 'pIC50', 8.68),
  ('Cc1cccc(CN(CCCCN)[C@H]2CCCc3cccnc32)n1', 'pIC50', 7.80),
  ('C[C@@H](c1ccccn1)N(CCCCN)Cc1nc2ccccc2[nH]1', 'pIC50', 8.70),
  ('Cc1cnc(CN(CCCCN)[C@H]2CCCc3cccnc32)c(C)c1', 'pIC50', 8.44),
  ('NCCCCN(Cc1ncccc1N)[C@H]1CCCc2cccnc21', 'pIC50', 8.68);
